Entries and their IC50 of inhibition of ssDNA deamination by purified A3G values follow.
- ASSAYED_TARGET: APOBEC3G (A3G), wild type, C-terminal His6 tag (human) (UniProt Q9HC16)
- Sequence (Q9HC16 whole entry): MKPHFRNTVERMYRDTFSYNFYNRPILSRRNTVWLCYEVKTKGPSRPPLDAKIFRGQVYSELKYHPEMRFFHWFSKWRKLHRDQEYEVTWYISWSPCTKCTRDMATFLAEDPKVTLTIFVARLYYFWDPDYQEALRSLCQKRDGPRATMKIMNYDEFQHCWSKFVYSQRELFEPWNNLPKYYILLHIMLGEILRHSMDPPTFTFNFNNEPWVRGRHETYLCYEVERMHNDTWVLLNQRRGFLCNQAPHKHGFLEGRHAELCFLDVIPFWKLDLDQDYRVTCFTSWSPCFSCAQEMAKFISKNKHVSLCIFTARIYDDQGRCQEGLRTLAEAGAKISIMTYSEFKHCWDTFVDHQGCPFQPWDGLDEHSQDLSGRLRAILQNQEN
Report only the number, with the unit µM understood.

Query :: Form field: reported IC50 of inhibition of ssDNA deamination by purified A3G of RLYYFWD [A3F305-311]
Result :: 1

Query :: Given the entry ARLYYFWDT [A3F304-312] , report its measured IC50 of inhibition of ssDNA deamination by purified A3G.
Result :: 8

Query :: Looking for the measured IC50 of inhibition of ssDNA deamination by purified A3G of RMHNDTWVLLNQRRG [A3G226-240] , can you help?
Result :: 60

Read the next record carefully.
Query :: Returns the measured IC50 of inhibition of ssDNA deamination by purified A3G for the input binder. Input: WVRGRHETYLCYEVE [A3G211-225]
Result :: 10
